molecular target: CDK2/CycE (Homo sapiens, UniProt P24941); experiment: CDK2/CycE kinase assay (TR-FRET, 2 mM ATP); settings: 2 mM ATP (high ATP); median; read-out: CDK2/CyclinE, 2 mM ATP (high ATP), IC50 (median)
# reported IC50; entries follow

Check out these entries, answers already filled in.
COC(C)(C)COc1nc(NCc2nc3ccccc3[nH]2)n2ncc(Br)c2n1    > 20 µM
CN1C[C@@H]2C[C@H]1CN2c1nc(NCc2nc3ccccc3[nH]2)n2ncc(Br)c2n1    > 20 µM
Cc1ccc2[nH]c(CNc3nc(N4C[C@H]5C[C@@H]4CO5)nc4c(C5CC5)cnn34)nc2c1    > 19.8 µM
Cc1cnn2c(NCc3nc4c(F)c(F)ccc4[nH]3)nc(N3CCN(C)CC3)nc12    > 20 µM
Fc1cccc2[nH]c(CNc3nc(N4C[C@@H]5C[C@H]4CO5)nc4c(C5CC5)cnn34)nc12    > 20 µM

# lookup: IC50 of Fc1ccc2[nH]c(CNc3nc(N4CC5CCC(C4)N5)nc4c(Cl)cnn34)nc2c1F.O=CO
12.1 µM

Same question, Fc1ccc(-c2nnc(CNc3nc(N4CCOCC4)nc4c(Br)cnn34)[nH]2)c(F)c1 this time
> 1.63 µM

Same question, CC1(C)CN(c2nc(NCc3nc4ccccc4[nH]3)n3ncc(C4CC4)c3n2)CCO1 this time
> 20 µM

###

# reported pIC50; entries follow
target: CDK2/CycE (Homo sapiens, UniProt P24941); assay: CDK2/CycE kinase assay (TR-FRET, 2 mM ATP); settings: 2 mM ATP (high ATP); median; read-out: CDK2/CyclinE, 2 mM ATP (high ATP), IC50 (median)
pIC50: −log10 of the molar value.

Short answer please: pIC50, CDK2/CycE (Homo sapiens, UniProt P24941), entry Cc1cc2nc(CNc3nc(N4CCN(C)CC4)nc4c(C5CC5)cnn34)[nH]c2cc1C [Example 312]
< 4.90

###

target: CDK12 (nuclear staining in CAL-120 cells) (Homo sapiens, UniProt Q9NYV4); construct: endogenous in cells; host or cells: CAL-120 human breast cancer cells (DSMZ ACC 459); assay: CDK12 nuclear protein level: immunofluorescence/high content analysis (CAL-120); assay type: cell-based; conditions: ratio of IC50 CDK12 high ATP kinase assay to DC50 CDK12 degradation (IF, CAL-120)
Sequence (Q9NYV4 whole entry): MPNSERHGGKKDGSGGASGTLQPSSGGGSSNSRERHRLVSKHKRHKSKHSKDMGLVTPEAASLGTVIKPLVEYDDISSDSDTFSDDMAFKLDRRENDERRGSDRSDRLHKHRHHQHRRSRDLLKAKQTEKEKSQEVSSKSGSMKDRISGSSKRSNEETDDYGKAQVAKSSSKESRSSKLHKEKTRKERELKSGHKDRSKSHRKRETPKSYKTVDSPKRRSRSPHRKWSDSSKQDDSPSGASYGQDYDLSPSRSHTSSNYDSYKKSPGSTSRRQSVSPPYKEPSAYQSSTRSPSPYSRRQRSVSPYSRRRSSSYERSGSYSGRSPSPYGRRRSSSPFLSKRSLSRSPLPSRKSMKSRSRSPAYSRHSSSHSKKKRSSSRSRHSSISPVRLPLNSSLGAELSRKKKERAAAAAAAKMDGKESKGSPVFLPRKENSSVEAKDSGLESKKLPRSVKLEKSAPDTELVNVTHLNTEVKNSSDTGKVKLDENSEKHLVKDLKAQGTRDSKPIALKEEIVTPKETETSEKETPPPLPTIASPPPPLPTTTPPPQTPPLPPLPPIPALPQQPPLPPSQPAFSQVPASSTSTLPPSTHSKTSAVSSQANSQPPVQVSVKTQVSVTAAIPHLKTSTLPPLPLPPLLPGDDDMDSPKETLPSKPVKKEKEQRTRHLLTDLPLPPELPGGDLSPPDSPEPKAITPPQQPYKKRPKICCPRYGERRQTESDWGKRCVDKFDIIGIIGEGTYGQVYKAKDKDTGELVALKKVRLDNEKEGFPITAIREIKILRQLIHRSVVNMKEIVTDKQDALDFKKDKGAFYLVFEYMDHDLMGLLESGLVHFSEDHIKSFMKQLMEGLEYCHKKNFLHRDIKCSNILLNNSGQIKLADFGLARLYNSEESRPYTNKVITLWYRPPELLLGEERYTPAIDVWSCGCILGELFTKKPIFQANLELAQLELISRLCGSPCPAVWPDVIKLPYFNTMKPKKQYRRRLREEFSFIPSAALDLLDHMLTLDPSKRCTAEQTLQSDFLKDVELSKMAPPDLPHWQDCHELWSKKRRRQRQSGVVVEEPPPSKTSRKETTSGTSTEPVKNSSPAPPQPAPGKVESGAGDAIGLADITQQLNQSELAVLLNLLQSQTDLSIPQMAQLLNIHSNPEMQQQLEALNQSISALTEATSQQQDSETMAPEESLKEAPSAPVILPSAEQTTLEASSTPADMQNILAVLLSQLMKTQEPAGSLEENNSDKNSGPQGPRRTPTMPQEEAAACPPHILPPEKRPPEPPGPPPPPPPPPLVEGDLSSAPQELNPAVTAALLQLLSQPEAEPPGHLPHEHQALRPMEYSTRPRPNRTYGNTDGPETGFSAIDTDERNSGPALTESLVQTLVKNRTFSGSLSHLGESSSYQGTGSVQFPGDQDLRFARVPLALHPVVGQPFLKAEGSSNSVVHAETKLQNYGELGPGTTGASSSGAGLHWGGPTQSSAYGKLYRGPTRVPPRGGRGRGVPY
Sequence (O75909 whole entry partner): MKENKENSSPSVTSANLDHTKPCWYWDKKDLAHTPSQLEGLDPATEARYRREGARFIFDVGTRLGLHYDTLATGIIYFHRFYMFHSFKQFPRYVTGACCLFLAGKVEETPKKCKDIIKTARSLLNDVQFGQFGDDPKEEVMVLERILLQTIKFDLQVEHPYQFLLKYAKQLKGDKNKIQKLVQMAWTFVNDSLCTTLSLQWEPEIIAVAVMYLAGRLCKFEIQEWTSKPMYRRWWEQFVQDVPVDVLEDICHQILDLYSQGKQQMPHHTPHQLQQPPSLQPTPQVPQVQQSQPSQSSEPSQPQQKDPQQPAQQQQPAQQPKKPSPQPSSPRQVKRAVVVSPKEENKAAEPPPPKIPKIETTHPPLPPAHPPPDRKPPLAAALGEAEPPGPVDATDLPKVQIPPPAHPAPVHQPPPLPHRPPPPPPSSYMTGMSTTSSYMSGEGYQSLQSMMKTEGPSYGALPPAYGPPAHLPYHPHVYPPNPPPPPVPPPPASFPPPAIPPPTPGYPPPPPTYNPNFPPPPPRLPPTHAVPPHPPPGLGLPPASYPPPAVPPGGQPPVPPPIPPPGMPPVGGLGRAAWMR
QUANTITY KIND: (IC50 CDK12 high ATP) to (Degradation DC50 CDK12) ratio

Check out these entries, answers already filled in.
Fc1ccc2[nH]c(CNc3nc(N4CC5CCC(C4)N5)nc4c(C(F)(F)F)cnn34)nc2c1F    75
Fc1c(Cl)ccc2[nH]c(CNc3nc(N4CC5CCC(C4)N5)nc4c(Br)cnn34)nc12    438
Clc1cc2nc(CNc3nc(N4CC5CCC(C4)N5)nc4c(C5CC5)cnn34)[nH]c2cc1Cl    48

[A] Fc1cc2nc(CNc3nc(N4CCOCC4)nc4c(C(F)(F)F)cnn34)[nH]c2cc1F
[B] Brc1cnn2c(NCc3nnc(-c4ccccc4)[nH]3)nc(N3CCCC3)nc12
Out of A and B , name the one with the higher (IC50 CDK12 high ATP) to (Degradation DC50 CDK12) ratio. To answer, give the label that identifies your chosen option.
B
(B: 440, A: 61)
